- ASSAY PROTOCOL: NCI Yeast Anticancer Drug Screen. Data for the mec2-1 strain (AID 157)
- EXPERIMENTAL CONTEXT: S. cerevisiae mec2-1 strain, at 50.0 µM, active compounds read high
This is part of a sample that, as a whole, favours compounds with a hit. Of some 79,000 tested, about 15% had one in any assay.
ASSAY ENDPOINT: growth inhibition (%)
One number for each entry, in %.

- COMPOUND: "O=c1[nH]c2ccccc2nc1/C=C\\NC(=S)Nc1cc(Cl)ccc1Cl"
  growth inhibition / %: -32.1
- COMPOUND: "O=C(OCCO)c1ccc(O)c(O)c1"
  growth inhibition / %: -4.65
- COMPOUND: "CC1CC(=O)CCC2(C)C(OC(C)(C)C)CCC12 (stereo not given)"
  growth inhibition / %: -1.75
- COMPOUND: "O=C1CCN2CCC(=O)c3c2c(cc2ccccc32)N1"
  growth inhibition / %: -15.8
- COMPOUND: "CCOC(=O)C(Cc1ccccc1)NC(=O)c1[nH]cnc1/N=N/N(C)C (stereo not given)"
  growth inhibition / %: -44
- COMPOUND: "CCOC(=O)/C=C/SCCC(=O)OC"
  growth inhibition / %: 21.9
- COMPOUND: "CCCCC(ON=C(C)C)C(=O)OC (stereo not given)"
  growth inhibition / %: 31.6
- COMPOUND: "CN(C)CC(Oc1ccccc1)C(=O)c1ccccc1 (stereo not given)"
  growth inhibition / %: -10.2
- COMPOUND: "CCC1=C[C@H]2CN(CCc3c([nH]c4ccccc34)[C@@](C(=O)OC)(c3cc4c(cc3OC)N(C)[C@H]3[C@@](O)(C(=O)NC)[C@H](OC(C)=O)[C@]5(CC)C=CCN6CC[C@]43[C@@H]65)C2)C1"
  growth inhibition / %: -1.75
- COMPOUND: "CC(=O)COc1ccccc1[N+](=O)[O-]"
  growth inhibition / %: 0

Required: growth inhibition, one value per compound below.
1. CC(NC(=O)OCc1ccccc1)C(=O)Nc1ccc(C(=O)O)c(O)c1 (stereo not given)
2. O=S(=O)(c1ccccc1)N1CCC1c1ccccc1 (stereo not given)
3. CSCCC(NCc1c(O)ccc2ccc(=O)oc12)C(=O)O (stereo not given)
4. O=C1OC(=O)C2C1C1(Cl)CC2(Cl)C(Cl)=C1Cl (stereo not given)
5. CCCCCCCCCCCCCC(=O)CCCC
6. CC(OC(=O)CC(c1ccccc1)N1CCCCC1)c1ccccc1 (stereo not given)

Response:
-5.1
-3.9
-9.1
-31.8
-8.4
1.3

Provide growth inhibition values for the following items, in order.
1. c1ccc2cc3ccccc3cc2c1
2. CC1(C)CN(CCC#N)C(c2ccc([N+](=O)[O-])cc2)O1 (stereo not given)
3. CCN(CC)c1ccc(N=C2C=C(C(=O)Nc3ccccc3)C(=O)c3ccccc32)cc1

Response:
[10.7, 3.3, -40.3]
